All figures here come from patent US20230390362A1.

Biological target: human GLP-1 receptor (human, UniProt P43220 24-463)
Assay: cell-based or functional assay
Positions of bridges follow the written chain, without caps; N, C: chain ends. Non-standard residues stand in square brackets, D forms with d. No end group written: not given here. Aib = CC(C)(N)C(=O)O
For each of the binders below, state its In vitro activity relative to native peptide (%), vs. GLP-1 (cAMP EC50).
The answer is to be given in %; state only the numeric part.

Give the value of In vitro activity relative to native peptide (%), vs. GLP-1 (cAMP EC50) reported for the following: HGQGTFTSDCSKYLDGQRAQDFVNWLLAGGPSSGAPPPS [trigonal agonist of SEQ ID NO: 48] 1.5

Give the value of In vitro activity relative to native peptide (%), vs. GLP-1 (cAMP EC50) reported for the following: H[Aib]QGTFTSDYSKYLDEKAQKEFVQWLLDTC (bridge 16-20) [trigonal agonist of SEQ ID NO: 30] 142

Supply In vitro activity relative to native peptide (%), vs. GLP-1 (cAMP EC50) value. Item: H[Aib]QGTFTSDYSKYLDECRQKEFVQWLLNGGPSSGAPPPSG (bridge 16-20) [trigonal agonist of SEQ ID NO: 37] 236
